Data provenance: patent US20180273584A1

Biological target: T1, Human epidermal growth factor receptor 2 (HER2) (human, UniProt P04626 23-1255)
T1 construct: whole, on cells; also called ErbB2
Experiment: flow cytometry on HT29 cells, apparent dissociation constant, 0-200 nM peptide, 4 °C 1 h
Ends that are not written are not given here. Cy5.5 = Cy5.5: Cy5.5 fluorophore (fluorescent dye)
readoutName: pKd
Reminder that pKd is minus the log10 of a molar concentration.

Quick one: pKd of KSPNPRFGGGSK(Cy5.5)-NH2 (Synthetic L-amino-acid peptide, Fmoc solid-phase synthesis; also called HER2 peptide reagent; KSP*-Cy5.5 peptide reagent) [KSP*-Cy5.5 (KSPNPRF peptide labeled with Cy5.5 fluorophore via a GGGSK linker on the C-terminus)] ? 7.68
